- TEST SYSTEM: SOS1:KRAS (G12C) interaction (Homo sapiens (Human))
- Sequence (Q07889 564-1049, stated change not applied): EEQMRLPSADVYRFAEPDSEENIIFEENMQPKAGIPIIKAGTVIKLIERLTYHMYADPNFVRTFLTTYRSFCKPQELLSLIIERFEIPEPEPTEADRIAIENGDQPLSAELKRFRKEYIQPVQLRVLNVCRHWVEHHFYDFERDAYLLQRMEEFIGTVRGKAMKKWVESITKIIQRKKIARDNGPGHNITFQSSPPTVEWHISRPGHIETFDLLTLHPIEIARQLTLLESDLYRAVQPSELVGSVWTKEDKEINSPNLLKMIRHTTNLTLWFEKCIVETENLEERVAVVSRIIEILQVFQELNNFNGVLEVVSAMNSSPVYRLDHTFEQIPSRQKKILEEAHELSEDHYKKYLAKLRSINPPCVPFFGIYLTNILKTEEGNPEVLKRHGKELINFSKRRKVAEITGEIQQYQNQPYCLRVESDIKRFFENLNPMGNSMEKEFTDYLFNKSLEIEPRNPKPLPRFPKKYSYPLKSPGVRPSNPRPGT
- ASSAY DETAILS: SOS1 KRas(G12C) FRET Assay
- RUN PARAMETERS: 0.5 nM His10-SOS1 (res. 564-1049), 2.5 nM GST-KRAS G12C (res. 1-169), 2 hrs at RT
MEASUREMENT LABEL: pIC50
Please note pIC50 is a logarithmic value: minus log10 of concentration in mol/L. Answer with that number alone.

Please review the following examples before continuing.
C[C@@H](NC(=O)c1cn(C23CC(C2)C3)c(=O)cc1NC1CCN(C)CC1)c1cccc(C(F)F)c1F    8.13
Cc1c([C@@H](C)NC(=O)c2cn(C3CCOCC3)c(=O)c(C)c2NC2CCN(C)CC2)cccc1C(F)(F)F    6.46
C[C@@H](NC(=O)c1cn(C2(C(F)F)CC2)c(=O)cc1N[C@H]1CCN2CCC[C@@H]2C1)c1cccc(C(F)F)c1F (single isomer, unassigned)    7.59

// map C[C@@H](NC(=O)c1cn(C2(C(F)F)CC2)c(=O)cc1NCC12CC(O)(C1)C2)c1cccc(C(F)F)c1F to recorded pIC50 (system: SOS1:KRAS (G12C) interaction (Homo sapiens (Human)))
7.47
